Source of measurements: the supplement of paper PMC4862054

Tested on: MDA-MB-231
test: drug sensitivity score (DSS), CellTiter-Glo (DSS (AUC-based score)); higher = stronger drug effect (viability inhibition or cytotoxicity); extreme values may be limits of the assay
conditionsUsed: incubation time: 72 h
Attribute: drug sensitivity score
// return just the number, without any unit appended

[
  {
    "compound": "Cn1c(Nc2ccc(C(F)(F)F)cc2)nc2cc(Oc3ccnc(-c4ncc(C(F)(F)F)[nH]4)c3)ccc21",
    "drug sensitivity score": 0
  },
  {
    "compound": "CN(C)/N=N/c1[nH]cnc1C(N)=O",
    "drug sensitivity score": 0
  }
]

API: the following record is the query input.
Value of measured drug sensitivity score for the entry COc1cc([C@@H]2c3cc4c(cc3[C@@H](O[C@@H]3O[C@@H]5CO[C@@H](C)O[C@H]5[C@H](O)[C@H]3O)[C@H]3COC(=O)[C@H]23)OCO4)cc(OC)c1O [Etoposide] : 0.846
